- test.summary: qHTS assay to identify small molecule antagonists of the peroxisome proliferator-activated receptor delta (PPARd) signaling pathway - cell viability counter screen (AID 743213); also: nearly all actives have a fitted effect of over 50% in size
- conditions.used: PPARd-bla HEK293H viability, CellTiter-Glo luminescence, 17 h; series mostly up to 62 µM
Records with an inconclusive call do not appear. Activity calls are given as the source filed them. Calls follow the shape of the dose curve; as a rule, active = well fitted cell-killing curve with a large enough effect in the repeat runs; inconclusive = weak or mixed curves; inactive = no such curve, though single readings can be large or run the other way.
value.type: outcome

[[record]]
smiles_code = "C[C@H]1CCC[C@H](O)CCCCCc2cc(O)cc(O)c2C(=O)O1"
observed_measurement = "inactive"

[[record]]
smiles_code = "CCCCN(CCCCO)N=O"
observed_measurement = "inactive"

[[record]]
smiles_code = "C1CCC(C2CCCCC2)CC1"
observed_measurement = "inactive"

